# subjectOfTest: pooled human IgG (human IgG1, 2, 3 and 4) (human)
# experimentSummary: cell-based or functional assay; further: test concentration or dose not given here
outcomeMeasure: Enzyme Activity Endpoint Assay: scIgG (ng/µL)

| binder | readoutUnits | recordedMeasurement |
| --- | --- | --- |
| PRT-410 (enzyme) MVTSVWTKGVTPPADFTQGEDVFHAPYVANQGWYDITKTFNGKDDLLCGAATAGNMLHWWFDQNKEYIEAYLKKHPEKQKIMFGDQELLDVRKAINTKGSQKNSELFNYFRDKAFPNLSARRLGVMPDLVLDMFINGYYLNVTKTQTTDVNRTYQEKDKRGGIFDAVFTRGDQSKLLTSRHDFKEKGLKEISDLIKQELTEGKALGLSHTYANVRINHVINLWGADFDSDGNLKAIYVTDSDTNASIGMKKYFVGVNSAGKVAISAKEIKEDNIGAQVLGLFTLSTGQDIWNQTN | ng/µL | 0 |
| PRT-393 (enzyme) MVTSVWTKGVTPPTNFTYGEDVLHAPYVANQGWYDITKTFNGKDDLLCGAATAGNMLHWWFDQNKEQIENYLKKHPEKQKINFNGEQMFDVKEAIDTKDSQLDSKLFEYFKEKAFPYLSTKHLGVFPDHVIDMFINGYRLSLTNHGPTPVKRGSKDPRGGIFDAVFTRGDQSKLLTNRHDFKEKTLKEISDLIKQELTEGKALGISHTYANVRINHVINLWGADFDAEGNLEAIYVTDSDTNASIGMKKYFVGVNSNGKVAISAKEIEEDNIGAQVLGLFTLSTGQDIWNQTN | ng/µL | 0 |
| PRT-419 (enzyme) MTITSVWTKGVTPPTPEDFRYNNEDVLHAPYVANQGWYDITKTFDGKDNLLCGAATAGNMLHWWFDQNKEEIERYLKKHPEKQKIIFNNQELFDVKAAIDTKDSQTNSKLFNYFRDKAFPNLSARQLGVMPDLVLDMFINGYYLNLGKTQSTDVNRPYQDKDKRGGIFDAVFTRGDQTTLLTARHDLKNKGLNEISDLIKQELTEGKALALSHTYANVRINHVINLWGADFDAEGNLIAIYVTDSDANASIGMKKYFVGVNANGKVAISAKKIEGDNIGAQVLGLFTLSTGQDQWQKLS | ng/µL | 0 |
| PRT-411 (enzyme) MVTSVWTKGVTPPADFTQGEDVFHAPYVANQGWYDITKTFNGKDDLLCGAATAGNMLHWWFDQNKEYIEAYLKKHPEKQKIMFGDQELLDVRKAINTKGSQKNSELFNYFRDKAFPNLSARRLGVMPDLVLDMFINGYYLNVTKTQTTDVNRTYQEKDKRGGIFDAVFTRGDQSKLLTSRHDFKEKGLKEISDLIKQELTEGKALGLSHTYANVRINHVINLWGADFDSDGNLKAIYVTDSDSRASIGMKKYFVGVNSAGKVAISAKEIKEDNIGAQVLGLFTLSTGQDIWNQTN | ng/µL | 155 |
| PRT-386 (enzyme) MVTSVWTKGVTPPTNFTYGEDVLHAPYVANQGWYDITKTFNGKDDLLCGAATAGNMLHWWFDQNKEQIENYLKKHPEKQKINFNGEQMFDVKEAIDTKDSQLDSKLFEYFKEKAFPYLSTKHLGVFPDHVIDMFINGYRLSLTNHGPTPVKRGSKDPRGGIFDAVFTRGDQSKLLTNRHDFKEKTLKEISDLIKQELTEGKALGISHTYANVRINHVINLWGADFDAEGNLEAIAVTDSDSNASIGMKKYFVGVNSNGKVAISAKEIEEDNIGAQVLGLFTLSTGQDIWNQTN | ng/µL | 240 |
| PRT-396 (enzyme) MVTSVWTKGVTPPADFTQGEDVFHAPYVANQGWYDITKTFNGKDDLLCGAATAGNMLHWWFDQNKEYIEAYLKKHPEKQKIMFGDQELLDVRKAINTKGSQKNSELFNYFRDKAFPNLSARRLGVMPDLVLDMFINGYYLNVTKTQTTDVNRTYQEKDKRGGIFDAVFTRGDQSKLLTSRHDFKEKGLKEISDLIKQELTEGKALGLSHTTANVRINHVINLWGADFDSDGNLKAIYVTDSDSNASIGMKKYFVGVNSAGKVAISAKEIKEDNIGAQVLGLFTLSTGQDIWNQTN | ng/µL | 215 |
| PRT-402 (enzyme) MVTSVWTKGVTPPADFTQGEDVFHAPYVANQGWYDITKTFNGKDDLLCGAATAGNMLHWWFDQNKEYIEAYLKKHPEKQKIMFGDQELLDVRKAINTKGSQKNSELFNYFRDKAFPNLSARRLGVMPDLVLDMFINGYYLNVTKTQTTDVNRTYQEKDKRGGIFDAVFTRGDQSKLLTSRHDFKEKGLKEISDLIKQELTEGKALGLSHTYANVRLNHVINLWGADFDSDGNLKAIYVTDSDSNASIGMKKYFVGVNSAGKVAISAKEIKEDNIGAQVLGLFTLSTGQDIWNQTN | ng/µL | 188 |
| PRT-401 (enzyme) MVTSVWTKGVTPPADFTQGEDVFHAPYVANQGWYDITKEFNGKDDLLCGAATAGNMLHWWFDQNKEYIEAYLKKHPEKQKIMFGDQELLDVRKAINTKGSQKNSELFNYFRDKAFPNLSARRLGVMPDLVLDMFINGYYLNVTKTQTTDVNRTYQEKDKRGGIFDAVFTRGDQSKLLTSRHDFKEKGLKEISDLIKQELTEGKALGLSHTYANVRINHVINLWGADFDSDGNLKAIYVTDSDSNASIGMKKYFVGVNSAGKVAISAKEIKEDNIGAQVLGLFTLSTGQDIWNQTN | ng/µL | 0 |
